# Experimental protocol: RP, Merck Supelco Ascentis Express C18, 100 × 2.1 mm, 2 µm, 40 °C, 0.2 mL/min, estimated dead time 1.1 min; A: water + 0.1% formic acid, pH 3; B: acetonitrile + 0.1% formic acid, pH 3; gradient (min/%B) 0/5 2/5 17/99.9 20/99.9
# Experimental conditions: stereoisomer not certain
Counter-ions that a name gives are not always drawn.
LC retention time strictly under 7 min means rule met; at 7 min or over means rule not met.

Identify whether the molecule NCCc1c[nH]c2ccc(O)cc12 [SEROTONIN] records LC retention time below 7 min.
rule met

Identify whether the molecule O=C(O)CNC(=O)c1ccccc1 [HIPPURATE] records LC retention time below 7 min.
rule met

Identify whether the molecule CC(=O)C1CCC2C3CC=C4CC(OS(=O)(=O)O)CCC4(C)C3CCC12C (configuration not stated) [PREGNENOLONE SULFATE] records LC retention time below 7 min.
rule not met

Identify whether the molecule C=C(CC(=O)O)C(=O)O [ITACONATE] records LC retention time below 7 min.
rule met

Identify whether the molecule NCC(=O)CCC(=O)O [5-AMINOLEVULINATE] records LC retention time below 7 min.
rule met

Identify whether the molecule CC(=O)NC(Cc1ccccc1)C(=O)O (configuration not stated) [N-ACETYLPHENYLALANINE] records LC retention time below 7 min.
rule met

Identify whether the molecule NC(Cc1c[nH]c2ccc(O)cc12)C(=O)O (configuration not stated) [5-HYDROXYTRYPTOPHAN] records LC retention time below 7 min.
rule met

Identify whether the molecule CC(CCC(=O)NCC(=O)O)C1CCC2C3C(O)CC4CC(O)CCC4(C)C3CC(O)C12C (configuration not stated) [GLYCOCHOLATE] records LC retention time below 7 min.
rule not met

Identify whether the molecule O=C(O)CCCCCC(=O)O [6-CARBOXYHEXANOATE] records LC retention time below 7 min.
rule met

Identify whether the molecule CC(CCC(=O)NCCS(=O)(=O)O)C1CCC2C3CCC4CC(O)CCC4(C)C3CCC12C (configuration not stated) [LITHOCHOLYLTAURINE] records LC retention time below 7 min.
rule not met

Identify whether the molecule O=C(O)c1ccc2ccccc2c1O [1-HYDROXY-2-NAPHTHOATE] records LC retention time below 7 min.
rule not met

Identify whether the molecule O=CCc1c[nH]c2ccccc12 [INDOLEACETALDEHYDE] records LC retention time below 7 min.
rule met

Identify whether the molecule NCCc1ccc(O)cc1 [TYRAMINE] records LC retention time below 7 min.
rule met

Identify whether the molecule CC(=O)NC(Cc1c[nH]c2ccccc12)C(=O)O (configuration not stated) [N-ACETYLTRYPTOPHAN] records LC retention time below 7 min.
rule met

Identify whether the molecule O=C(O)C(O)c1ccccc1 (configuration not stated) [MANDELATE] records LC retention time below 7 min.
rule met

Identify whether the molecule Nc1ccccc1S(=O)(=O)O [ANILINE-2-SULFONATE] records LC retention time below 7 min.
rule met

Identify whether the molecule CSCC1OC(n2cnc3c(N)ncnc32)C(O)C1O (configuration not stated) [METHYLTHIOADENOSINE] records LC retention time below 7 min.
rule met

Identify whether the molecule CSCC[C@H](NC=O)C(=O)O [N-FORMYL-L-METHIONINE] records LC retention time below 7 min.
rule met

Identify whether the molecule O=C(O)CCCCCCCCCO [10-HYDROXYDECANOATE] records LC retention time below 7 min.
rule not met
